- System: HL-60(TB) leukemia
- method: NCI tumour cell line growth inhibition, 48 h; in the data active = GI50 below about 0.43 µM; inactive = the rest
Labels: YES for active, NO for inactive

| compound | discrete.label |
| --- | --- |
| CC(=O)[O-].O=C([CH-]C(=O)c1ccccc1)c1ccccc1.O=C([CH-]C(=O)c1ccccc1)c1ccccc1.[Dy+3] | NO |
| NC1=Nc2cc(OCCCCN3Cc4ccccc4C3)c(OCC3CC3)cc2C12CCCC2 | NO |
| N/C(=N\O)c1cn(C2OC(CO)C(O)C2O)c2ncnc(N)c12 (stereo not drawn) | YES |
| COc1ccc2c(c1)OCC1c3cc(OC)ccc3OC21 (stereo not drawn) | NO |
| O=C(CNC(=O)c1cccc2ccccc12)Nc1ccccc1Oc1ccc(O)cc1 | NO |
| CC1(C)CC[C@]2(C(=O)O)CC[C@]3(C)C(=CC[C@@H]4[C@@]5(C)C/C(=C/c6cccnc6)[C@H](O)C(C)(C)[C@@H]5CC[C@]43C)[C@@H]2C1 | NO |
| CC1(C)N=C(N)N=C(N)N1c1cccc(CC(=O)Nc2ccccc2)c1 | NO |
| COc1ncc(-c2ccc3nc(N)n(-c4ccccc4C(F)(F)F)c(=O)c3c2)cc1S(=O)(=O)Nc1ccc(F)cc1F | NO |
| CNC(=S)N/N=C/CSC/C=N/NC(=S)NC | NO |
| CCOc1ccc(-c2nc3ccc(-c4nc5ccc(N6CCN(C)CC6)cc5[nH]4)cc3[nH]2)cc1OCC | NO |
| Cc1cc(C)c(CNC(=O)c2cc(Cl)c3c(c2C)O[C@@](C)(C2CCC(N(C)C)CC2)O3)c(=O)[nH]1 (stereo partly drawn) | NO |
| CCCN1CCCC(c2ccc(Nc3nc(Nc4cc(F)ccc4C(N)=O)c4cc[nH]c4n3)c(OC)c2)C1 (stereo not drawn) | YES |
| Nc1nc(-c2ccccn2)c(-c2ccc3ncccc3n2)s1 | NO |
| COc1cc2nc(NC3CCC3)nc(NC3CCN(C(C)C)CC3)c2cc1OC | NO |
| COc1cc(C(=O)N[C@@H]2CCCN(C)C2)ccc1Nc1ncc2c(n1)N(C1CCCC1)CC(C)(C)C(=O)N2C | YES |
| CCC[CH2][Sn]1([CH2]CCC)[O]C(=O)c2cccnc2[S]1 | NO |
| FC(F)(F)c1ccc(-c2cnc(-c3nn[nH]n3)nc2NC2CCCCCC2)cc1 | NO |
| C=C(C)[C@@H]1CC[C@]2(C(=O)OC)CC[C@]3(C)[C@H](CC[C@@H]4[C@@]5(C)CC/C(=N\OCCC(=NCCC#N)NOCCC#N)C(C)(C)[C@@H]5CC[C@]43C)[C@@H]12 | NO |

----------
- Test system: HCC-2998 colon
- method: NCI tumour cell line growth inhibition, 48 h
value.type: TGI

| molecule | value.type | assay.value |
| --- | --- | --- |
| COc1ccc(CCN2C(=O)C(=O)C(C(=O)c3ccccc3)C2c2ccccc2)cc1OC (centres undefined) | TGI | > 100 µM |
| CC(C)OC(=O)OCOP(=O)(OCOC(=O)OC(C)C)C1CCCN(O)C1=O (centres undefined) | TGI | 44.7 µM |
| NS(=O)(=O)c1ccc(NNc2c3ccccc3nc3c(C(=O)Nc4ccc(S(N)(=O)=O)cc4)cccc23)cc1 | TGI | 86.7 µM |
| COc1ccc(C2OC2C(=O)C23CC4CC(CC(C4)C2)C3)cc1 (centres undefined) | TGI | > 100 µM |
| COC(=O)[C@]1(CCC(C)=O)C(=O)C=CN([C@H](C)c2ccccc2)[C@@H]1Cc1ccc(OC)c(OCc2ccccc2)c1I | TGI | 29.2 µM |
| CNC(=S)N/N=C/CSC/C=N/NC(=S)NC | TGI | > 100 µM |
| CS(=O)c1cc(=O)c2ccccc2s1 (centres undefined) | TGI | 16.6 µM |
| CC(=O)OCC1OC(Sc2nc(-c3ccccc3)c(C#N)c(=O)n2C2OC(COC(C)=O)C(OC(C)=O)C(OC(C)=O)C2OC(C)=O)C(OC(C)=O)C(OC(C)=O)C1OC(C)=O (centres undefined) | TGI | > 100 µM |
| CCCCP1(=O)C=CC(Cl)=C(C)C1 (centres undefined) | TGI | > 100 µM |
